target: cynomolgous IL-13 (cynomolgous, UniProt Q0PW92 19-132, The Biacore assay used biotinylated cIL-13 according to our card. The biotin cannot be carried in the letters.); assay: cell-based or functional assay
Sequence (Q0PW92 entry or part of it limits assumed, form in doubt): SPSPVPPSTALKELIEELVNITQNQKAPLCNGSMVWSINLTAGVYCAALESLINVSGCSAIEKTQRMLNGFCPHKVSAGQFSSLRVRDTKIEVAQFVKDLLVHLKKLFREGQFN
Each entry below carries its reported EC50, HEK293 STAT6 SEAP reporter assay, cIL-13.

DOM10-275-94 (other) VH: EVQLLESGGGLVQPGGSLRLSCAASGFTFDVAEMDWVRQAPGKGLEWVSTISPSRRGTYYADSVKGRFTISRDNSKNTLYLQMNSLRAEDTAVYYCAKAYTGRSWWGPGTLVTVSS | 2 nM

**Q:** Fill in the blank: the reported EC50, HEK293 STAT6 SEAP reporter assay, cIL-13 of DOM10-275-78 (other, VH dAb) VH: EVQLLESGGGLVQPGGSLRLSCVASGFTFDVAEMDWVRQAPGKGLEWVSTISPSRRGTYYADSVKGRFTISRDNSKNTLYLQMNSLRAEDTAVYYCAKAYTGRSLWGPGTLVTVSS is ____.
**A:** 1.4 nM
